Ki values, listed per item
- testedTarget: D(2) dopamine receptor (Homo sapiens, UniProt P14416)
- Sequence (P14416 whole entry): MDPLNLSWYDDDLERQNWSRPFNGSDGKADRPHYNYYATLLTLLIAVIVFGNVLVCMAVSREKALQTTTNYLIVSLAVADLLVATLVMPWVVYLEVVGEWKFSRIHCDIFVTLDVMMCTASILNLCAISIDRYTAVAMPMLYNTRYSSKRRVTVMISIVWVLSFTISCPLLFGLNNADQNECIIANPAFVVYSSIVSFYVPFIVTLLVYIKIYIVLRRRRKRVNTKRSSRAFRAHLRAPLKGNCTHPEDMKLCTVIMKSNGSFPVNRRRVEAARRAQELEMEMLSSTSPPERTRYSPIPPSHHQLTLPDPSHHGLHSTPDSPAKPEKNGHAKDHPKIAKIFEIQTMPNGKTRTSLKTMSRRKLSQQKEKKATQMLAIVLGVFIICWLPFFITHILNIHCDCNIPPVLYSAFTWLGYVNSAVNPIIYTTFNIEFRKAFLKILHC
- assayComment: Displacement of [3H]spiperone from D2L dopamine receptor
Entry rule: numbers only, all in nM.

[
  {
    "smilesData": "CN1CCc2ccccc2Cc2c(ccc(O)c2Cl)CC1",
    "number": 0.99
  },
  {
    "smilesData": "CN1CCc2ccccc2Cc2cc(Cl)c(O)c(Cl)c2CC1",
    "number": 88
  },
  {
    "smilesData": "CN1CCc2ccccc2Cc2cc(O)c(Cl)cc2CC1",
    "number": 2
  },
  {
    "smilesData": "COc1ccc2c(c1)CCN(C)CCc1cc(OC)ccc1C2",
    "number": 6.5
  },
  {
    "smilesData": "COc1cccc2c1Cc1ccccc1CCN(C)CC2",
    "number": 164
  }
]

Q) I have this compound here, CN1CCc2ccccc2Cc2[nH]c3ccccc3c2CC1 , and I need its recorded Ki.
A) 44.7

Q) I have this compound here, CN1CCc2ccccc2Cc2cc(O)ccc2CC1 , and I need its recorded Ki.
A) 36.9

Q) I have this compound here, CN1CCc2cc(O)ccc2Cc2ccc(O)cc2CC1 , and I need its recorded Ki.
A) 58.7

Q) I have this compound here, COc1ccc2c(c1)Cc1ccccc1CCN(C)CC2 , and I need its recorded Ki.
A) 62

Q) I have this compound here, CN1CCc2ccccc2Cc2ccc(O)c(Cl)c2CC1 , and I need its recorded Ki.
A) 4

Q) I have this compound here, COc1ccc2c(c1)CCN(C)CCc1ccccc1C2 , and I need its recorded Ki.
A) 13

Q) I have this compound here, CN1CCc2ccccc2Cc2cc(N)c(O)cc2CC1 , and I need its recorded Ki.
A) 37.3

Q) I have this compound here, CN1CCc2ccccc2Cc2c(O)cccc2CC1 , and I need its recorded Ki.
A) 84

Q) I have this compound here, COc1c(Cl)cc2c(c1Cl)Cc1ccccc1CCN(C)CC2 , and I need its recorded Ki.
A) 210
